Reported SKW3 WT vs KO anti-mFc-647 values for a set of binders
system tested: T1, human CD4 on the surface of SKW3 cells or human PBMCs (human, UniProt P01730 26-458)
T1 construct: whole, on cells; SKW3 CD4 knockout cells served as the negative cell line; also called hCD4; SKW3 WT
experimental details: FACS primary screen, non-clonal hybridoma supernatant, SKW3 vs SKW3 CD4 KO cells, anti-mouse Fc A647

binder: 75110_01A06A (antibody, V domains shown, Tested here as non-clonal hybridoma supernatant from AlivaMab Mouse Kappa mice (detected with anti-mouse Fc and anti-human kappa)) VH: EVQLVESGGGLVQPGGSLRLSCAASGFTFSSYWMSWVRQAPGKGLEWVANINEDGNEKYYVDSVKGRLTISRDNAKNSLYLQMNSLRAEDTAVYFCAREGGQWLSLDYWGQGALVTVSS VL: DIQMTQSPSSVSASVGDRVSITCRASQGISSWLAWYQQKPGKAPKILIYGASSLQSGVPSRFSGSGSGTDFTLTISSLQPEDFATYYCQQANSFPWTFGQGTKVEIK
readout units: ratio
SKW3 WT vs KO anti-mFc-647: 7.5

binder: 75110_09N20A (antibody, V domains shown, Tested here as non-clonal hybridoma supernatant from AlivaMab Mouse Kappa mice (detected with anti-mouse Fc and anti-human kappa)) VH: EVQLVESGGGLVQPGGSLRLSCAASGFTFSSYWMSWVRQAPGKGLEWVANINEDGSEKYYVDSVKGRFTISRDNAKNSLYLQMNSLRAEDTAVYYCVREGGQWLALDYWGQGTLVTVSS VL: DIQMTQSPSSVSASVGDRVTITCRASQGISSWLAWYQQKPGKAPKLLIYAASSLQSGVPSSFSGSGSGTDFTLTINSLQPEDFATYYCQQANSFPWTFGQGTKVAIK
readout units: ratio
SKW3 WT vs KO anti-mFc-647: 5.4

binder: 75110_09G15A (antibody, V domains shown, Tested here as non-clonal hybridoma supernatant from AlivaMab Mouse Kappa mice (detected with anti-mouse Fc and anti-human kappa)) VH: EVQLVESGGGLVQPGGSLRLSCAASGFTFSDYWMSWVRQAPGKGLEWVANINQDGSEKYSVDSVKGRFTISRDNAKNSLYLQMNSLRAEDTAIFYCAREGGQWLALDYWGQGTLVTVSS VL: DIQMTQSPSSVSASVGDRVTITCRASQGISSWLAWYQQKPGKAPKLLIYGASSLQSGVPSRFSGSGSGTDFTLTINSLQPEDFTTYYCQQANIFPWTFGQGTKVEIK
readout units: ratio
SKW3 WT vs KO anti-mFc-647: 4.8

binder: 75110_03D16A (antibody, V domains shown, Tested here as non-clonal hybridoma supernatant from AlivaMab Mouse Kappa mice (detected with anti-mouse Fc and anti-human kappa)) VH: EVQLVESGGGLVQPGGSLRLSCAASGFTFSSYWMSWVRQAPGKGLEWVANINQDGGEKYYVDSVKGRFTISRDNAKNSLYLQMNSLRAEDTAVYYCVREGGQWLALDYWGQGTLVTVSS VL: DIQMTQSPSSVSASVGDRVTITCRASQGISSWLTWYQQKPGKAPKFLIYAASSLQSGVPSRFSGSGFGTDFTLTISSLQPEDFATYYCQQANSFPWTFGQGTKVEIK
readout units: ratio
SKW3 WT vs KO anti-mFc-647: 6.5

binder: 75110_04P08A (antibody, V domains shown, Tested here as non-clonal hybridoma supernatant from AlivaMab Mouse Kappa mice (detected with anti-mouse Fc and anti-human kappa)) VH: QVQLQQWGAGLLKPSETLSLTCAVYGGSLSGYYWSWIRQSPGKGLEWIGEINQSGSTNYNPSLKSRVTISVDTSKDQFSLRLTSVTAADTAVYYCTRVLNWFDPWGRGTLVTVSS VL: DIQMTQSPSSVSASVGDRVTLTCRASQDISNWLAWYQQKPGKAPKLLIYAASSLQSGVPSRFSGSGSGTDFTLTISSLQTEDFATYYCQQANSFPYTFGQGTKLEIK
readout units: ratio
SKW3 WT vs KO anti-mFc-647: 8.4
